The measured values listed here are drawn from patent US20240366809A1.

Tested on: human organs
Assay: Absorbed doses of radiation, estimates for human organs (OLINDA software)
Conditions: human organ: Prostate
Protocol: The AUC of drug metabolisms was calculated from the biodistribution (Bio-D) data and imported into the OLINDA software to generate doses of radiation absorbed by all the organs.
Below, each of the compounds is paired with its reported radiation dose estimate, Prostate value.
State just the number; it will be interpreted in mSv/MBq.

Worked cases, answers included:
{"COMPOUND": "O=C([O-])CN1CCN(CC(=O)[O-])CCN(CC(=O)N2CCO[C@]3(CC[C@H](C(=O)N[C@@H](Cc4ccc5ccccc5c4)C(=O)NCCCC[C@H](NC(=O)N[C@@H](CCC(=O)O)C(=O)O)C(=O)O)CC3)C2)CCN(CC(=O)[O-])CC1.[177Lu+3] [^177Lu-v]", "SCALE UNIT": "mSv/MBq", "radiation dose estimate, Prostate": "1.29E−03"}
{"COMPOUND": "O=C([O-])CN1CCN(CC(=O)[O-])CCN(CC(=O)NCC2CCC(C(=O)N[C@@H](Cc3ccc4ccccc4c3)C(=O)NCCCC[C@H](NC(=O)N[C@@H](CCC(=O)O)C(=O)O)C(=O)O)CC2)CCN(CC(=O)[O-])CC1.[68Ga+3] (stereo partly shown) [^68Ga-PSMA-617, reference compound]", "SCALE UNIT": "mSv/MBq", "radiation dose estimate, Prostate": "7.73E−03"}
{"COMPOUND": "O=C([O-])CN1CCN(CC(=O)[O-])CCN(CC(=O)N2CCO[C@]3(CC[C@H](C(=O)N[C@@H](Cc4ccc5ccccc5c4)C(=O)NCCCC[C@H](NC(=O)N[C@@H](CCC(=O)O)C(=O)O)C(=O)O)CC3)C2)CCN(CC(=O)[O-])CC1.[68Ga+3] [^68Ga-v]", "SCALE UNIT": "mSv/MBq", "radiation dose estimate, Prostate": "3.77E−03"}

# input for lookup
Consider the compound O=C([O-])CN1CCN(CC(=O)[O-])CCN(CC(=O)NCC2CCC(C(=O)N[C@@H](Cc3ccc4ccccc4c3)C(=O)NCCCC[C@H](NC(=O)N[C@@H](CCC(=O)O)C(=O)O)C(=O)O)CC2)CCN(CC(=O)[O-])CC1.[177Lu+3] (stereo partly shown) [^177Lu-PSMA-617, reference compound] and give its measured radiation dose estimate, Prostate.
1.23E−03
